These data points were gathered from patent US20250320281A1.

# assayedSystem: HIV-1 92RW020 Env (pseudovirus) (HIV-1 isolate 92RW020)
# assayProcedure: cell-based or functional assay
valueType: IC50 (µg/mL), pseudovirus neutralization
Hi! Could you send only the number? It should be in µg/mL, unit omitted.

Q: Item under review: 1443_C16 (PG16) (TCN-116) (antibody, V domains shown) VH: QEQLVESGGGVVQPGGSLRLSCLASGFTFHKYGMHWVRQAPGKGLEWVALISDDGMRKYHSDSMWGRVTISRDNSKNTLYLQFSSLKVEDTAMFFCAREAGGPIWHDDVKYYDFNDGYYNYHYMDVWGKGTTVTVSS VL: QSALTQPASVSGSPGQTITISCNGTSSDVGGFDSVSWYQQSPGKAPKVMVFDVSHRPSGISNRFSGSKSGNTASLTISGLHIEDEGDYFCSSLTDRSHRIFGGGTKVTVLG . Reported IC50 (µg/mL), pseudovirus neutralization?
Ans: 0.004
